Assay: Metabolic stability in rat liver microsomes at 10 uM after 3 hrs by LC/MS analysis
Format: ADME
Settings: read-out: Stability
For each entry below, report its remaining at 3 h, 10 µM value.
Answers are plain numbers, in %.

Take a look at these entries with their results.
C=CCc1cc(F)cc(/C=N/NC(=O)CN2CCN(C(=O)c3ccccc3)CC2)c1O : 93
CCCc1cc(F)cc(/C=N/NC(=O)CN2CCN(C(=O)c3ccccc3)CC2)c1O : 86

# remaining at 3 h, 10 µM of `C=CCc1cccc(/C=N/NC(=O)CN2CCN(C(=O)c3ccc(C(F)(F)F)cc3)CC2)c1O` = 85

###

For each entry below, report its bioavailability value.
Experiment: Oral bioavailability in C57/BL6 mouse at 25 mg/kg by LC/MS/MS analysis
Assay type: ADME, organism-based
Conditions: in vivo
Answers are plain numbers, in %.

Example entries and their recorded answers appear below.
C=CCc1cccc(/C=N/NC(=O)CN2CCN(C(=O)c3ccc(F)cc3)CC2)c1O : 25.6
C=CCc1cccc(/C=N/NC(=O)CN2CCN(Cc3ccccc3)CC2)c1O : 15.1

GET /value?item= `C=CCc1cc(F)cc(/C=N/NC(=O)CN2CCN(C(=O)c3ccccc3)CC2)c1O` &field=bioavailability returns 8.5

###

Experiment: AUC in C57/BL6 mouse at 25 mg/kg, iv by LC/MS/MS analysis
Type: ADME, organism-based
Parameters: dose 25 mg/kg, route intravenous
Settings: plasma
Observed Property: AUC (ng·h/mL)
Answers are plain numbers, in ng·h/mL.

C=CCc1cccc(/C=N/NC(=O)CN2CCN(Cc3ccccc3)CC2)c1O : 3510

For each of the molecules below, note its AUC.
1. C=CCc1cc(F)cc(/C=N/NC(=O)CN2CCN(C(=O)c3ccccc3)CC2)c1O
2. C=CCc1cccc(/C=N/NC(=O)CN2CCN(C(=O)c3ccc(F)cc3)CC2)c1O

A.
[4850, 6040]

###

Test: Metal chelating activity of the compound assessed as zinc complex formation after 5 mins by EGTA fluorescence titration Assay
Format: physicochemical
Please go through the items and note down their Kd.

Below, each entry is followed by its recorded Kd result.
O=C(CN1CCN(Cc2ccccc2)CC1)N/N=C/c1ccccc1 : > 1000 µM
C=CCc1cc(F)cc(/C=N/NC(=O)CN2CCN(C(=O)c3ccccc3)CC2)c1O : 0.00107 µM
C=CCc1cccc(/C=N/NC(=O)CN2CCN(C(=O)c3ccc(F)cc3)CC2)c1O : 0.00146 µM

Next up:
The compound identified as C=CCc1cccc(/C=N/NC(=O)CN2CCN(Cc3ccccc3)CC2)c1O [PAC-1] registered its Kd at 0.00128 µM

###

Hi there, I'd appreciate the recorded remaining at 3 h, 10 µM for every entry that follows.
Assay: Metabolic stability in rat liver microsomes at 10 uM after 3 hrs by LC/MS analysis
Assay type: ADME
Conditions: read-out: Stability
Answers are plain numbers, in %.

// input: 3 compounds below; output: remaining at 3 h, 10 µM for each
1. C=CCc1cc(F)cc(/C=N/NC(=O)CN2CCN(C(=O)c3ccc(C(F)(F)F)cc3)CC2)c1O
2. O=C(CN1CCN(Cc2ccccc2)CC1)N/N=C/c1cc(F)ccc1O
3. CCCc1cccc(/C=N/NC(=O)CN2CCN(C(=O)c3ccccc3)CC2)c1O

A.
1: 90; 2: 64; 3: 71

###

Tested on: Mus musculus
Assay: Toxicity in C57BL/6 mouse at 200 mg/kg, ip measured over 24 hrs
Format: organism-based
Set-up: dose 200 mg/kg, route intraperitoneal
Settings: in vivo
Observed Property: Activity

Example entries begin here.
C=CCc1cc(F)cc(/C=N/NC(=O)CN2CCN(C(=O)c3ccccc3)CC2)c1O : Non-toxic
CCCc1cc(F)cc(/C=N/NC(=O)CN2CCN(C(=O)c3ccc(F)cc3)CC2)c1O : Toxic
O=C(CN1CCN(C(=O)c2ccc(C(F)(F)F)cc2)CC1)N/N=C/c1cc(F)ccc1O : Non-toxic
C=CCc1cc(F)cc(/C=N/NC(=O)CN2CCN(C(=O)c3ccc(F)cc3)CC2)c1O : Toxic
C=CCc1cccc(/C=N/NC(=O)CN2CCN(Cc3ccccc3)CC2)c1O [PAC-1] : Toxic

# Activity (compound: `C=CCc1cccc(/C=N/NC(=O)CN2CCN(C(=O)c3ccc(F)cc3)CC2)c1O` ) is Non-toxic

###

I'd appreciate it if you could supply AUC values for the items below.
Test: AUC in C57/BL6 mouse at 25 mg/kg, po by LC/MS/MS analysis
Format: ADME, organism-based
Parameters: dose 25 mg/kg, route oral
Conditions: plasma
Numbers only, in ng·h/mL.

C=CCc1cccc(/C=N/NC(=O)CN2CCN(C(=O)c3ccc(F)cc3)CC2)c1O : 1540
C=CCc1cc(F)cc(/C=N/NC(=O)CN2CCN(C(=O)c3ccccc3)CC2)c1O : 428

The compound listed as `C=CCc1cccc(/C=N/NC(=O)CN2CCN(Cc3ccccc3)CC2)c1O` has a reported AUC of 527

###

Assay: Metabolic stability in rat liver microsomes at 10 uM after 3 hrs by LC/MS analysis
Assay type: ADME
Details: read-out: Stability
Mark t only for remaining at 3 h, 10 µM values smaller than 60%; exact matches and larger values are f.

Q. Regarding `C=CCc1cc(F)cc(/C=N/NC(=O)CN2CCN(Cc3ccc(S(N)(=O)=O)cc3)CC2)c1O` , kindly confirm whether its remaining at 3 h, 10 µM is beneath 60%.
A. f

Q. # check: remaining at 3 h, 10 µM < 60% for `N#Cc1ccc(C(=O)N2CCN(CC(=O)N/N=C/c3cc(F)ccc3O)CC2)cc1`
A. f

Q. Dear reviewer, please state whether `O=C(CN1CCN(C(=O)c2ccc(C(F)(F)F)cc2)CC1)N/N=C/c1cc(F)ccc1O` has remaining at 3 h, 10 µM strictly beneath 60%.
A. f

Q. hey, is remaining at 3 h, 10 µM for `C=CCc1cc(F)cc(/C=N/NC(=O)CN2CCN(Cc3ccccc3)CC2)c1O` lower than 60% or not?
A. t

###

Assay: Metabolic stability in rat liver microsomes at 10 uM after 3 hrs by LC/MS analysis
Format: ADME
Details: read-out: Stability
Can you tell me remaining at 3 h, 10 µM for the items I'm about to list?
Numbers only, in %.

These recorded examples may help you get a feel for the data.
CCCc1cccc(/C=N/NC(=O)CN2CCN(Cc3ccc(F)cc3)CC2)c1O : 24
C=CCc1cccc(/C=N/NC(=O)CN2CCN(Cc3ccc(C#N)cc3)CC2)c1O : 48
C=CCc1cccc(/C=N/NC(=O)CN2CCN(C(=O)c3ccc(C#N)cc3)CC2)c1O : 90
C=CCc1cccc(/C=N/NC(=O)CN2CCN(C(=O)c3ccc(F)cc3)CC2)c1O : 86
CCCc1cccc(/C=N/NC(=O)CN2CCN(Cc3ccc(C(F)(F)F)cc3)CC2)c1O : 15
CCCc1cc(F)cc(/C=N/NC(=O)CN2CCN(C(=O)c3ccc(C#N)cc3)CC2)c1O : 66

Record remaining at 3 h, 10 µM for all entries; do not skip any.
1. O=C(CN1CCN(Cc2ccc(C(F)(F)F)cc2)CC1)N/N=C/c1cc(F)ccc1O
2. C=CCc1cc(F)cc(/C=N/NC(=O)CN2CCN(C(=O)c3ccc(F)cc3)CC2)c1O
3. CCCc1cc(F)cc(/C=N/NC(=O)CN2CCN(Cc3ccc(C#N)cc3)CC2)c1O
4. CCCc1cccc(/C=N/NC(=O)CN2CCN(Cc3ccccc3)CC2)c1O
5. C=CCc1cc(F)cc(/C=N/NC(=O)CN2CCN(Cc3ccc(F)cc3)CC2)c1O

A.
1. 30
2. 92
3. 49
4. 30
5. 57

Dear reader, for each entry below, please note its remaining at 3 h, 10 µM.
1. C=CCc1cc(F)cc(/C=N/NC(=O)CN2CCN(Cc3ccc(C#N)cc3)CC2)c1O
2. C=CCc1cccc(/C=N/NC(=O)CN2CCN(Cc3ccc(F)cc3)CC2)c1O
3. CCCc1cccc(/C=N/NC(=O)CN2CCN(Cc3ccc(S(N)(=O)=O)cc3)CC2)c1O
4. CCCc1cccc(/C=N/NC(=O)CN2CCN(C(=O)c3ccc(C(F)(F)F)cc3)CC2)c1O
5. CCCc1cc(F)cc(/C=N/NC(=O)CN2CCN(C(=O)c3ccc(F)cc3)CC2)c1O
6. C=CCc1cccc(/C=N/NC(=O)CN2CCN(Cc3ccc(C(F)(F)F)cc3)CC2)c1O

A.
1: 65; 2: 31; 3: 61; 4: 64; 5: 67; 6: 16

###

Test: Metabolic stability in rat liver microsomes at 10 uM after 3 hrs by LC/MS analysis
Type: ADME
Conditions: read-out: Stability
// NB: equality with 60% counts as f; only remaining at 3 h, 10 µM strictly below is t

Answered cases to consult:
O=C(CN1CCN(C(=O)c2ccccc2)CC1)N/N=C/c1cc(F)ccc1O : f
C=CCc1cccc(/C=N/NC(=O)CN2CCN(Cc3ccccc3)CC2)c1O : t
CCCc1cc(F)cc(/C=N/NC(=O)CN2CCN(Cc3ccc(F)cc3)CC2)c1O : t
C=CCc1cc(F)cc(/C=N/NC(=O)CN2CCN(Cc3ccc(C(F)(F)F)cc3)CC2)c1O : t
CCCc1cccc(/C=N/NC(=O)CN2CCN(C(=O)c3ccc(F)cc3)CC2)c1O : f

Q. is_below(remaining at 3 h, 10 µM, 60%) for `CCCc1cc(F)cc(/C=N/NC(=O)CN2CCN(Cc3ccc(C(F)(F)F)cc3)CC2)c1O` ?
A. t

Q. Criterion: remaining at 3 h, 10 µM strictly below 60%. Is it met by `CCCc1cc(F)cc(/C=N/NC(=O)CN2CCN(Cc3ccc(S(N)(=O)=O)cc3)CC2)c1O` ?
A. f

Q. Just wondering, is remaining at 3 h, 10 µM of `CCCc1cc(F)cc(/C=N/NC(=O)CN2CCN(Cc3ccccc3)CC2)c1O` below 60%?
A. t

Q. Dear reviewer, please state whether `O=C(CN1CCN(C(=O)c2ccc(F)cc2)CC1)N/N=C/c1cc(F)ccc1O` has remaining at 3 h, 10 µM strictly beneath 60%.
A. f

Q. Please let me know if `C=CCc1cccc(/C=N/NC(=O)CN2CCN(C(=O)c3ccccc3)CC2)c1O` shows remaining at 3 h, 10 µM below 60%.
A. f

Q. Please check: remaining at 3 h, 10 µM for `CCCc1cccc(/C=N/NC(=O)CN2CCN(Cc3ccc(C#N)cc3)CC2)c1O` , strictly under 60% or not?
A. t

Q. Lab note: remaining at 3 h, 10 µM threshold 60%. Does this molecule come in strictly under it? `C=CCc1cccc(/C=N/NC(=O)CN2CCN(Cc3ccc(S(N)(=O)=O)cc3)CC2)c1O`
A. f

Q. Given the entry `C=CCc1cc(F)cc(/C=N/NC(=O)CN2CCN(C(=O)c3ccc(C#N)cc3)CC2)c1O` , would its reported remaining at 3 h, 10 µM be below 60%?
A. f

Q. In plain terms, does `CCCc1cc(F)cc(/C=N/NC(=O)CN2CCN(C(=O)c3ccc(C(F)(F)F)cc3)CC2)c1O` come in under 60% for remaining at 3 h, 10 µM?
A. f
